These measurements were taken from the supplement of paper PMC12137928.

Test system: HCT116
Condition parameters: 72 h; ICRF193 200 nM
Structures can show the parent of a compound that is named as a salt.
Let's look at some compounds and their measured IC50 cell viability.

CC1CCCCN1CCCOC(=O)c1ccccc1 (centres undefined) [Piperocaine hydrochloride] | > 45.8 µM
C[C@@H](CO)NC(=O)[C@@H]1C=C2c3cccc4[nH]cc(c34)C[C@H]2N(C)C1 [Ergobasine] | > 45.8 µM
CC(=O)O[C@]1(C(C)=O)CC[C@H]2[C@@H]3C=C(Cl)C4=CC(=O)CC[C@]4(C)[C@H]3CC[C@@]21C [Chlormadinone acetate] | > 45.8 µM

Next:
Documented IC50 cell viability of O=C(O)C1=C(CSc2nnnn2CS(=O)(=O)O)CS[C@@H]2[C@H](NC(=O)[C@H](O)c3ccccc3)C(=O)N12 [CEFONICID SODIUM] : 6.51 µM

###

Let's look at some molecules and their measured IC50 cell viability.
System: HCT116
Condition parameters: 72 h; ICRF193 200 nM
Counter-ions that a name gives are not always drawn.

Look over these answered cases.
COCc1c(C(C)C)nc(C(C)C)c(/C=C/[C@@H](O)C[C@@H](O)CC(=O)O)c1-c1ccc(F)cc1 [Cerivastatin sodium] | 0.92 µM
C[C@](N)(Cc1ccc(O)c(O)c1)C(=O)O | > 45.8 µM
O=C(O)[C@@H](O)[C@H](O)[C@H](O)[C@@H](O)C(=O)O | > 45.8 µM
CC(=O)O[C@]1(C(C)=O)CC[C@H]2[C@@H]3C=C(Cl)C4=CC(=O)[C@@H]5C[C@@H]5[C@]4(C)[C@H]3CC[C@@]21C [Cyproterone acetate] | > 45.8 µM

Documented IC50 cell viability of CC(C)(O)c1ccccc1CC[C@@H](SCC1(CC(=O)O)CC1)c1cccc(/C=C/c2ccc3ccc(Cl)cc3n2)c1 [Montelukast sodium] : > 45.8 µM

Documented IC50 cell viability of Cc1nc(=O)c2cc(CN(C)c3ccc(C(=O)N[C@@H](CCC(=O)O)C(=O)O)s3)ccc2[nH]1 : > 45.8 µM

Documented IC50 cell viability of CCOC(=O)C1=C(COCCN)NC(C)=C(C(=O)OC)C1c1ccccc1Cl (stereo not given) : 16.4 µM

Documented IC50 cell viability of CCN1CC(CCN2CCOCC2)C(c2ccccc2)(c2ccccc2)C1=O (stereo not given) [Doxapram hydrochloride] : > 45.8 µM

Documented IC50 cell viability of CC(=O)Oc1ccc(C(=C2CCCCC2)c2ccc(OC(C)=O)cc2)cc1 : > 45.8 µM

###

Tested on: HCT116
Condition parameters: 72 h; ICRF193 0 nM
Let's look at some compounds and their measured IC50 cell viability.

Look over these answered cases.
COc1ccc([C@@H]2CC(=O)c3c(O)cc(O[C@@H]4O[C@H](CO[C@@H]5O[C@@H](C)[C@H](O)[C@@H](O)[C@H]5O)[C@@H](O)[C@H](O)[C@H]4O)cc3O2)cc1O [Aurantiamarin (Methyl Hesperidin)] | > 45.8 µM
CCCCCCCCCCCCCCCC(=O)OC1CCCn2c1nc(C)c(CCN1CCC(c3noc4cc(F)ccc34)CC1)c2=O (stereo not drawn) [Paliperidone Palmitate] | > 45.8 µM

Documented IC50 cell viability of CCCCCN(C)CCC(O)(P(=O)(O)O)P(=O)(O)O [Ibandronate sodium hydrate] : > 45.8 µM

###

Test system: HCT116
Condition parameters: 72 h; ICRF193 200 nM
Value type: IC50 cell viability

Look over these answered cases.
COc1ccc(-c2cc(C(F)F)nn2-c2ccc(S(N)(=O)=O)cc2)cc1F | > 45.8 µM
Cc1ccc(/C(=C\CN2CCCC2)c2ccccn2)cc1 | > 45.8 µM
Cc1ccc(C2(O)CCN(CCCC(=O)c3ccc(F)cc3)CC2)cc1 | > 45.8 µM
CN[C@@H]1[C@@H](O)[C@@H](O[C@@H]2[C@@H](O)[C@H](O[C@H]3O[C@H](CN)CC[C@H]3N)[C@@H](N)C[C@H]2N)OC[C@]1(C)O.CN[C@@H]1[C@@H](O)[C@@H](O[C@@H]2[C@@H](O)[C@H](O[C@H]3O[C@H]([C@@H](C)N)CC[C@H]3N)[C@@H](N)C[C@H]2N)OC[C@]1(C)O.CN[C@@H]1[C@@H](O)[C@@H](O[C@@H]2[C@@H](O)[C@H](O[C@H]3O[C@H]([C@@H](C)NC)CC[C@H]3N)[C@@H](N)C[C@H]2N)OC[C@]1(C)O [GENTAMICIN SULFATE] | > 45.8 µM
C[N+](C)(C)CC(=O)O | > 45.8 µM

Documented IC50 cell viability of COc1cc(C(=O)NS(=O)(=O)c2ccccc2C)ccc1Cc1cn(C)c2ccc(NC(=O)OC3CCCC3)cc12 : > 45.8 µM

Documented IC50 cell viability of OC[C@H]1O[C@@H](c2ccc(F)c(Cc3cc4ccccc4s3)c2)[C@H](O)[C@@H](O)[C@@H]1O : > 45.8 µM

###

System: HCT116
Condition parameters: 72 h; ICRF193 0 nM
Let's look at some molecules and their measured IC50 cell viability.

COC(=O)[C@H]1[C@H]2C[C@@H]3c4[nH]c5cc(OC)ccc5c4CCN3C[C@H]2C[C@@H](OC(=O)/C=C/c2ccc(O)c(OC)c2)[C@@H]1OC | 20.6 µM

Documented IC50 cell viability of C[C@H](/C=C/[C@H](C)C(C)(C)O)[C@H]1CC[C@H]2/C(=C/C=C3C[C@@H](O)C[C@H](O)C3)CCC[C@]12C : > 45.8 µM

Documented IC50 cell viability of O=P1(N(CCCl)CCCl)NCCCO1 (configuration not stated) [Cyclophosphamide] : > 45.8 µM

Documented IC50 cell viability of COc1cc2c(cc1O)CCN[C@]21CS[C@@H]2c3c(OC(C)=O)c(C)c4c(c3[C@H](COC1=O)N1[C@@H]2[C@H]2c3c(cc(C)c(OC)c3O)C[C@@H]([C@@H]1O)N2C)OCO4 : 0.0119 µM

Documented IC50 cell viability of O=C(O[C@H]1C[C@H]2CC[C@@H](C1)[N+]21CCCC1)C(O)(c1ccccc1)c1ccccc1 [Trospium chloride] : > 45.8 µM

Documented IC50 cell viability of C[C@@H]1CCN(C(=O)CC#N)C[C@@H]1N(C)c1ncnc2[nH]ccc12 : > 45.8 µM

Documented IC50 cell viability of OC[C@H]1O[C@@](CO)(O[C@H]2O[C@H](CO)[C@@H](O)[C@H](O)[C@H]2O)[C@@H](O)[C@@H]1O : > 45.8 µM

###

Tested on: HCT116
Condition parameters: 72 h; ICRF193 200 nM
Structures can show the parent of a compound that is named as a salt.
Value type: IC50 cell viability (µM)

Look over these answered cases.
CN1CCN(CCCN2c3ccccc3Sc3ccc(C(F)(F)F)cc32)CC1 [Fluoperazine dihydrochloride] | 18.3
CC(C)c1nc(CN(C)C(=O)N[C@H](C(=O)N[C@@H](Cc2ccccc2)C[C@H](O)[C@H](Cc2ccccc2)NC(=O)OCc2cncs2)C(C)C)cs1 | 20.6

P: COc1c(-c2ccc3cc(NS(C)(=O)=O)ccc3c2)cc(-n2ccc(=O)[nH]c2=O)cc1C(C)(C)C
Q: CC[C@]1(O)C[C@@H]2CN(CCc3c([nH]c4ccccc34)[C@@](C(=O)OC)(c3cc4c(cc3OC)N(C)[C@H]3[C@@](O)(C(N)=O)[C@H](O)[C@]5(CC)C=CCN6CC[C@]43[C@@H]65)C2)C1 [Vindesine sulfate salt]
Req: Returns: the argument ( P or Q ) having the larger IC50 cell viability. Lab note: record the label of whichever item you select.
Resp: P
(P: 25.9 µM, Q: 0.058 µM)

###

Tested on: HCT116
Condition parameters: 72 h; ICRF193 0 nM
Counter-ions that a name gives are not always drawn.
Value type: IC50 cell viability

COC(=O)C1=C(C)NC(C)=C(C(=O)OC)C1c1ccccc1[N+](=O)[O-] | 23.1 µM

Item: CC[N+](C)(C)Cc1ccccc1Br [Bretylium tosylate] | System: HCT116 | IC50 cell viability: > 45.8 µM

Item: O=C(/C=C/c1ccccc1)OCc1ccccc1 [Benzyl cinnamate] | System: HCT116 | IC50 cell viability: > 45.8 µM

Item: CC(C)(O)CNc1nc(Nc2ccnc(C(F)(F)F)c2)nc(-c2cccc(C(F)(F)F)n2)n1 | System: HCT116 | IC50 cell viability: > 45.8 µM

Item: CCN[C@H]1C[C@H](C)S(=O)(=O)c2sc(S(N)(=O)=O)cc21 [Dorzolamide hydrochloride] | System: HCT116 | IC50 cell viability: > 45.8 µM

###

Test system: HCT116
Condition parameters: 72 h; ICRF193 200 nM
Value type: IC50 cell viability

NC(=O)N/N=C/c1ccc([N+](=O)[O-])o1 | > 45.8 µM

Documented IC50 cell viability of O=S(=O)(c1cccc2cnccc12)N1CCCNCC1 : > 45.8 µM

Documented IC50 cell viability of CC(=O)Oc1ccccc1C(=O)O : > 45.8 µM

Documented IC50 cell viability of CSCCNc1nc(SCCC(F)(F)F)nc2c1ncn2[C@@H]1O[C@H](COP(=O)(O)OP(=O)(O)C(Cl)(Cl)P(=O)(O)O)[C@@H](O)[C@H]1O : > 45.8 µM

Documented IC50 cell viability of CN1C(C(=O)Nc2ccccn2)=C(O)c2sc(Cl)cc2S1(=O)=O : > 45.8 µM
